# Test system: OVCAR-8
# method: NCI tumour cell line growth inhibition, 48 h
The source made the active and inactive calls. Rule as the data show it: active = GI50 up to about 1.1 µM and inactive = higher.
Readings of GI50 for the listed compounds

>  <compound>
CCOc1cc(C2CC(c3ccc(NS(=O)(=O)c4cc([N+](=O)[O-])ccc4C)cc3)=NN2c2ccc([N+](=O)[O-])cc2[N+](=O)[O-])ccc1O (stereo not drawn)

>  <testedSystem>
OVCAR-8

>  <measuredParameter>
GI50

>  <readoutValue>
5.22 µM (inactive)

$$$$
>  <compound>
O=C1CCCC2(c3ccccc3)Nc3ccccc3N12 (stereo not drawn)

>  <testedSystem>
OVCAR-8

>  <measuredParameter>
GI50

>  <readoutValue>
> 100 µM (inactive)

$$$$
>  <compound>
CC(C)(C)OC(=O)N/N=C(/N)Cc1ccccc1

>  <testedSystem>
OVCAR-8

>  <measuredParameter>
GI50

>  <readoutValue>
> 100 µM (inactive)

$$$$

Task item: Reported GI50 for OVCAR-8, given COC(=O)C(=O)C(C(=O)C(=O)Nc1ccccc1C(N)=O)c1nc2ccc([N+](=O)[O-])cc2nc1O (stereo not drawn) ?
Reply: > 100 µM (inactive)

Task item: Queued: `CCOC(=O)Cc1nc2ccc3c(c2nc1O)C(=O)c1ccccc1C3=O`
Reply: 31.6 µM (inactive)

====

# System: SK-OV-3
# method: NCI tumour cell line growth inhibition, 48 h
Active and inactive are the calls of the source. No stated cut-off is given here; in the data, active = GI50 up to about 1.1 µM and inactive = higher.
Below, each entry is listed with its recorded GI50.

Answered examples (2):
>  <smilesStr>
Nc1nccc2c1ncn2[C@H]1C[C@H](O)[C@@H](CO)O1

>  <GI50>
> 100 µM (inactive)

$$$$
>  <smilesStr>
S=P(N1CC1)(N1CC1)N1CC1

>  <GI50>
101 µM (inactive)

$$$$

Now, please, on to the next compound.
Task item: Request the reported GI50 associated with `COc1cc2ccc3c4cc(OC)c(OC(C)C)cc4c[n+](C)c3c2cc1OC`
Reply: > 100 µM (inactive)

====

# Test system: SW-620
# method: NCI tumour cell line growth inhibition, 48 h
The source made the active and inactive calls. No stated cut-off is given here; in the data, active = GI50 up to about 1.1 µM and inactive = higher.
measuredParameter: GI50

Solved entries (count: 5):
>  <compound>
Cn1c(=O)c2nc(/N=N/Nc3nncs3)[nH]c2n(C)c1=O

>  <testedSystem>
SW-620

>  <GI50>
> 100 µM (inactive)

$$$$
>  <compound>
O=C(N/N=C(COc1ccc(Cl)cc1)\N=C\c1cccnc1)c1ccncc1

>  <testedSystem>
SW-620

>  <GI50>
> 100 µM (inactive)

$$$$
>  <compound>
O=C1C(NCCc2ccc(O)c(O)c2)=CC(=O)c2ncccc21

>  <testedSystem>
SW-620

>  <GI50>
14.4 µM (inactive)

$$$$
>  <compound>
CN(C)CC1CCCCCCCCCCCCC(CN(C)C)C1=O (centres undefined)

>  <testedSystem>
SW-620

>  <GI50>
7.64 µM (inactive)

$$$$
>  <compound>
COc1ccc2c(c1OC)C(C(Cl)(Cl)Cl)N1CCc3cc4c(cc3C1=C2)OCO4 (centres undefined)

>  <testedSystem>
SW-620

>  <GI50>
21.2 µM (inactive)

$$$$

Task item: Recorded GI50 for `COC(=O)[C@@H](NC1(c2ccccc2)c2ccccc2-c2ccccc21)[C@@H](C(=O)OC)N(NC(=O)OCc1ccccc1)C(=O)OCc1ccccc1.COC(=O)[C@@H](NC1(c2ccccc2)c2ccccc2-c2ccccc21)[C@H](C(=O)OC)N(NC(=O)OCc1ccccc1)C(=O)OCc1ccccc1` , please?
Reply: > 100 µM (inactive)

Task item: Next compound up: `COC(=O)C12CC3CC(C1)CC(C(=O)OC)(C3)C2`
Reply: > 100 µM (inactive)

Task item: // query: COC(=O)CCC(=O)CC1CC(=O)C2CCCN12 (centres undefined)
Reply: > 100 µM (inactive)

Task item: Repeat for the following compound: `COc1cccc([C@@]2(O)c3c(ccc(O)c3OC)[C@H]2OC)c1OC`
Reply: 28.6 µM (inactive)

Task item: Also `COc1cccc(-c2cc(=O)c3cc(C)c(C)c(C(=O)O)c3o2)c1` , if possible.
Reply: > 100 µM (inactive)

Task item: Item: `CCCCCC/C=C\CCCCCCCCCc1cccc(O)c1C(=O)O`
Reply: > 100 µM (inactive)

====

# Tested on: ACHN
# method: NCI tumour cell line growth inhibition, 48 h
Activity calls are given as the source filed them. Cut-off read from the data, not from the text of the source: active = GI50 up to about 1.1 µM and inactive = higher.
measuredParameter: GI50

Some solved entries appear below for comparison.
>  <compound>
Cc1cc(S(=O)(=O)Nc2nc(N)n(C)n2)c(S)cc1Cl

>  <readoutValue>
> 10 µM (inactive)

$$$$
>  <compound>
Cc1ccc2[nH]c3c(c2c1)C1CCC(C(C)(C)C)CC1C1C(=O)N(c2ccc4c(c2)OCO4)C(=O)C31 (stereo unspecified)

>  <readoutValue>
1.87 µM (inactive)

$$$$
>  <compound>
COc1cc(CC2c3cc(OC)c(OC)cc3CCN2C)c(Oc2cc3c(cc2OC)-c2c(O)c(OC)cc4c2C(C3)N(C)CC4)cc1OC (stereo unspecified)

>  <readoutValue>
22.9 µM (inactive)

$$$$
>  <compound>
C=C(Nc1ccc([N+](=O)[O-])cc1[N+](=O)[O-])c1c/c(=N\NC(N)=S)c2ccccc2o1

>  <readoutValue>
89.5 µM (inactive)

$$$$
>  <compound>
O=C1CNc2cc(N3CCN(c4ccccc4)CC3)ccc2N1

>  <readoutValue>
> 100 µM (inactive)

$$$$

Task item: Which GI50 is reported with ACHN for this entry: `CCOC(=O)c1sc2c(c1OC(=O)c1ccco1)c(=O)n(-c1ccccc1)c(=S)n2-c1ccccc1` ?
Reply: 27.5 µM (inactive)

====

# Tested on: HOP-92
# method: NCI tumour cell line growth inhibition, 48 h
Active and inactive are the calls of the source. Cut-off read from the data, not from the text of the source: active = GI50 up to about 1.1 µM and inactive = higher.
// one of 1 (active), -1 (inactive), no free text

>  <compound>
CC(=O)Oc1cc(C(F)(F)F)ccc1C(=O)OC1(C)OC(=O)c2ccc(C(F)(F)F)cc2O1 (stereo not given)

>  <testedSystem>
HOP-92

>  <cat>
-1

$$$$
>  <compound>
COc1cc(-c2nnc3n2NC=C(C(=O)O)S3)cc(OC)c1OC

>  <testedSystem>
HOP-92

>  <cat>
-1

$$$$
>  <compound>
CN(C)CCNS(=O)(=O)N(C)C

>  <testedSystem>
HOP-92

>  <cat>
-1

$$$$
>  <compound>
C[C@H](OCc1ccccc1)C(=O)N1CCS(=O)(=O)N2CCC[C@H]2C1=O

>  <testedSystem>
HOP-92

>  <cat>
-1

$$$$

Attention now shifts to the item below.
Task item: What outcome does the record of this test show for COC1C(C)OC(OC2CC(C)(O)Cc3cc4c(c(O)c32)C(=O)c2c(O)cc3c(c2C4=O)OC2OC3(C)C(O)C(N(C)C)C2O)C(OC)C1(C)OC (stereo not given) ?
Reply: 1

====

As shown below, each of these compounds has a reported GI50 value.
# Tested on: MDA-MB-435
# method: NCI tumour cell line growth inhibition, 48 h
Calls of active or inactive are those of the source. Rule as the data show it: active = GI50 up to about 1.1 µM and inactive = higher.

Take a look at these entries with their results.
>  <compound>
N#Cc1nc(C2SCCCS2)oc1N

>  <testedSystem>
MDA-MB-435

>  <readoutValue>
> 100 µM (inactive)

$$$$
>  <compound>
Cc1cc(S(=O)(=O)Nc2nc(N)n(C)n2)c(S)cc1Cl

>  <testedSystem>
MDA-MB-435

>  <readoutValue>
> 10 µM (inactive)

$$$$

Task item: Find the recorded GI50 belonging to O=C(O)C(C(C(=O)O)P(=O)(O)O)P(=O)(O)O (stereo unspecified) and report it.
Reply: > 100 µM (inactive)

====

# System: TK-10
# method: NCI tumour cell line growth inhibition, 48 h
The source made the active and inactive calls. Rule as the data show it: active = GI50 up to about 1.1 µM and inactive = higher.
measuredParameter: GI50

Task item: # GI50 lookup, item `CC(C)CCC[C@@H](C)[C@H]1CC[C@H]2[C@@H]3CC[C@H]4C[C@H](N)CC[C@]4(C)[C@H]3CC[C@]12C`
Reply: 16.6 µM (inactive)

Task item: Proceed to `COc1ccc2cc(CNCCCCCCCCCCCCNCc3ccc4cc(OC)ccc4c3)ccc2c1`
Reply: 18.8 µM (inactive)

Task item: Same again, this time with `O=c1cc(-c2ccccc2)oc2cc(O)cc(O)c12`
Reply: 34.5 µM (inactive)

Task item: Consider next the compound `Cc1nc2ccc(Cl)cc2c2c1CCN2c1ccccc1` in the same way.
Reply: 12.7 µM (inactive)

Task item: Then this compound: CC(=O)OCC(Br)C1(C)CCC(C(C)(C)Br)O1 (configuration not stated)
Reply: > 100 µM (inactive)

Task item: // query: `O=C(O)c1ccc(Nc2cnc3cc(C(F)(F)F)ccc3n2)cc1`
Reply: 31.5 µM (inactive)

====

# System: RXF 393
# method: NCI tumour cell line growth inhibition, 48 h
Activity calls are given as the source filed them. Rule as the data show it: active = GI50 up to about 1.1 µM and inactive = higher.
The following compounds are listed with their measured GI50 values.

Observe how each entry below is paired with its result.
>  <compound>
COc1cc(-c2ccc(/N=N/c3c(S(=O)(=O)O)cc4cc(S(=O)(=O)O)cc(N)c4c3O)c(OC)c2)ccc1/N=N/c1c(S(=O)(=O)O)cc2cc(S(=O)(=O)O)cc(N)c2c1O

>  <measuredParameter>
GI50

>  <readoutValue>
> 100 µM (inactive)

$$$$
>  <compound>
Cc1nn(C(=O)c2ccncc2)c2c1C(c1ccc(Cl)cc1)SC(=N)N2 (stereo unspecified)

>  <measuredParameter>
GI50

>  <readoutValue>
> 10 µM (inactive)

$$$$

Task item: For the compound `CC(C)c1ccc(O)c(=O)c(O)c1.CC(C)c1ccc(O)c(=O)cc1.CC(C)c1cccc(=O)c(O)c1.CC(C)c1ccccc(=O)c1O` , what GI50 is on record?
Reply: 0.432 µM (active)

Task item: Same thing, different compound: CN1C(=O)C2C=C3CCCCC3=CC2N(C)C1=O (stereo unspecified)
Reply: > 100 µM (inactive)
